biological target: UniProt O43614; assay: Measurement of orexin type 2 receptor agonist activity (Experimental Example 2-1, FLIPR TETRA, intracellular Ca2+); format: cell-based; settings: CHO dhfr- cells expressing hOX2R, FLIPR TETRA, Fluo-4AM; read-out: Emax (%)
Sequence (O43614 whole entry): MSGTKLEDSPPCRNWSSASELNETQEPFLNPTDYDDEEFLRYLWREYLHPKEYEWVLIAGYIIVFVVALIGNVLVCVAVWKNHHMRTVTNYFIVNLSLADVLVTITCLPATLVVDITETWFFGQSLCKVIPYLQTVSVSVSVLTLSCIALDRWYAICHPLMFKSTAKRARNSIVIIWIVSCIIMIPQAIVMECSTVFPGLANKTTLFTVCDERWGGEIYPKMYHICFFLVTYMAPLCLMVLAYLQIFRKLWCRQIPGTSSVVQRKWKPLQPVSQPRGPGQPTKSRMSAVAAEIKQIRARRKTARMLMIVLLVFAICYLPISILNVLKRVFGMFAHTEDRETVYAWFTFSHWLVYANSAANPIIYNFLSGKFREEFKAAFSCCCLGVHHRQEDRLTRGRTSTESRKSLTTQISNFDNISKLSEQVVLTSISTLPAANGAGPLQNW
Would you mind telling me the reported Emax of each entry?
Answer format: value, then unit.

Using UniProt O43614 as the test system, report measured Emax of COc1cccc([C@H]2CC[C@@H](OC[C@H]3[C@@H](NS(C)(=O)=O)CCCN3C(C)=O)CC2)c1 (relative stereo) . 104%

Using UniProt O43614 as the test system, report measured Emax of "COc1cccc([C@H]2CC[C@@H](OC[C@H]3[C@@H](NS(C)(=O)=O)CCCN3C(=O)C3CC3)CC2)c1" . 105%

Using UniProt O43614 as the test system, report measured Emax of CCOC(=O)N1CCC[C@H](NS(C)(=O)=O)[C@@H]1COC1CCN(c2ccccc2F)CC1 (relative stereo) . 89%

---

Would you mind telling me the reported pEC50 of each entry?
target: UniProt:O43614; experiment: Measurement of orexin type 2 receptor agonist activity (Experimental Example 2-1, FLIPR TETRA, intracellular Ca2+); assay type: cell-based; conditions: CHO dhfr- cells expressing hOX2R, FLIPR TETRA, Fluo-4AM
Quick note: pEC50 values are minus log10 of concentrations in mol/L.

Specify reported pEC50 for the molecule shown: CS(=O)(=O)N[C@H]1CCCN[C@H]1CO[C@H]1CC[C@@H](c2ccccc2Cl)CC1 (relative stereo) 6.21

Specify reported pEC50 for the molecule shown: CC(=O)N1CCC[C@H](NS(C)(=O)=O)[C@@H]1CO[C@H]1CC[C@@H](c2c(C)cccc2C)CC1 (relative stereo) 5.66

Specify reported pEC50 for the molecule shown: CS(=O)(=O)N[C@H]1CCCN(C(=O)C2CC2)[C@H]1COC1CCN(c2cc(F)ccc2Cl)CC1 (relative stereo) 5.66

Specify reported pEC50 for the molecule shown: "COC(=O)N1CCC[C@H](NS(C)(=O)=O)[C@@H]1CO[C@H]1CC[C@@H](c2ccccc2F)CC1" 8.47

Specify reported pEC50 for the molecule shown: CCNC(=O)N1CCC[C@H](NS(C)(=O)=O)[C@@H]1CO[C@H]1CC[C@@H](c2cccc(C(F)(F)F)c2)CC1 (relative stereo) 7.59

Specify reported pEC50 for the molecule shown: CC(=O)N1CCC[C@H](NS(C)(=O)=O)[C@@H]1CO[C@H]1CC[C@@H](c2cc(F)ccc2F)CC1 [Example 217] 7.89

Specify reported pEC50 for the molecule shown: CC(C)OC(=O)N1CCC[C@H](NS(C)(=O)=O)[C@@H]1COC1CCN(c2ncccn2)CC1 (relative stereo) 8.09

Specify reported pEC50 for the molecule shown: COC(=O)N1CCC[C@H](NS(C)(=O)=O)[C@@H]1CO[C@H]1CC[C@@H](c2ccccc2Cl)CC1 (relative stereo) 8.21

Specify reported pEC50 for the molecule shown: "CS(=O)(=O)N[C@H]1CCCN(C(=O)CC(F)(F)F)[C@H]1CO[C@H]1CC[C@@H](c2ccccc2)CC1" 7.89

Specify reported pEC50 for the molecule shown: CS(=O)(=O)N[C@H]1CCCN(C(=O)C2CC2)[C@H]1COC1CCN(c2ncccn2)CC1 (relative stereo) 7.52

Specify reported pEC50 for the molecule shown: CC1(OC(=O)N2CCC[C@H](NS(C)(=O)=O)[C@@H]2COC2CCN(c3ncccn3)CC2)CC1 (relative stereo) 6.59

Specify reported pEC50 for the molecule shown: "CC(=O)N1CCC[C@H](NS(C)(=O)=O)[C@@H]1CO[C@H]1CC[C@@H](c2cc(F)cc(F)c2F)CC1" 7.77

Specify reported pEC50 for the molecule shown: "CC(=O)N1CCC[C@H](NS(C)(=O)=O)[C@@H]1CO[C@H]1CC[C@@H](c2ccccc2C)CC1" 7.54

Origin of the recorded values: patent US10287305B2
